Recorded values, source PubChem BioAssay AID1159580.

# Protocol Text: chemical genetic growth profiling, strain panel (AID 1159580);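 further: tested at 20 µM; growth read once vehicle control cultures reached saturation at 30 °C; lower values mean less growth of the strain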
# Test Context: S. cerevisiae deletion strains, growth OD, locus YOL147C, strain pex11
In all, about 5,500 compounds went through this assay and about 2,000 (36%) were called active. Roughly 18% stayed inconclusive and do not appear here. No stated cut-off is given here; in the data, active means normalized growth mostly below about 0.91 (no sharp cut-off); inconclusive means no clear call, values can overlap the other calls; inactive means mostly above about 0.92. The list shows a part of the results.
Classes used: active, inactive

compound="COC(=O)[C@@H]1OC(=O)C2OC23[C@@]1(C)CCC1[C@@]2(C)CCC(=O)C(C)(C)C2C[C@@H](OC(C)=O)[C@]13C (some centres undefined)" assigned_class=inactive
compound=COc1ccc2c(=O)c(OC)c(-c3ccccc3)oc2c1 assigned_class=active
compound=Cc1cc(/C=C/c2ccc3cc(N(C)C)ccc3[n+]2C)c(C)n1-c1ccccc1 assigned_class=inactive
compound=O=c1oc2ccccc2cc1O assigned_class=inactive
compound="CC1CCC(NC(=O)N(CCCl)N=O)CC1 (centres undefined)" assigned_class=inactive
compound=Fc1ccc([C@@H]2CCNC[C@H]2COc2ccc3c(c2)OCO3)cc1 assigned_class=inactive
compound=Oc1c(Cl)cc(Cl)c(Cl)c1Cc1c(O)c(Cl)cc(Cl)c1Cl assigned_class=active
compound="COc1ccc2c(c1)OCC(Cc1ccc(OC)c(OC(C)=O)c1)C2=O (centres undefined)" assigned_class=inactive
compound="O=C(O)CCC1NCC2CC1CN1CCCCC21 (centres undefined)" assigned_class=inactive
compound="COc1cc2c(cc1OC)C1(O)C(=O)c3ccc(O)c(C(=O)O)c3OC1CO2 (centres undefined)" assigned_class=inactive
compound=COc1ccc2oc3ccccc3c(=O)c2c1 assigned_class=active
compound=O=C(O)CCCCCCCC(=O)O assigned_class=inactive
compound=NCCCC(=O)O assigned_class=inactive
compound=O=NN(CCCl)C(=O)NCCCl assigned_class=inactive
compound=C1N2CN3CN1CN(C2)C3 assigned_class=inactive
compound="COc1ccc(CCC(=O)c2c(O)cc(O[C@@H]3O[C@H](CO)C(O)[C@H](O)C3O[C@@H]3O[C@@H](C)[C@H](O)[C@@H](O)[C@H]3O)cc2O)cc1O (some centres undefined)" assigned_class=inactive
compound="COC1=CC(=O)OC(CCc2ccc(OC)c(OC)c2)C1 (centres undefined)" assigned_class=inactive
compound="CC1[C@H](C)OC(=O)CC(O)CC(O)CC(O)CCC(O)C(O)C[C@]2(O)CC(O)C(C(=O)O)C(CC(OC3O[C@H](C)[C@@H](O)[C@H](N)[C@@H]3O)/C=C/C=C/C=C/C=C/CC/C=C/C=C/[C@H](C)[C@H]1O)O2 (some centres undefined)" assigned_class=active
compound="COc1ccc2c(c1)OCC(Cc1ccc(OC)c(O)c1)C2=O (centres undefined)" assigned_class=inactive
